test protocol: Cytotoxicity against human CRL1790 cells assessed as reduction in cell viability after 48 hrs by sulforhodamine B assay
Format: cell-based
assay setup: CRL1790 (CCD-841CoN) cells
Give GI50 at 48 h for every item shown.
Numbers only, in µM.

{"smiles record": "COc1cc(/C=C/C(=O)CC(=O)/C=C/c2ccc(O)c(OC)c2)ccc1O", "unit info": "µM", "GI50 at 48 h": 58.6}

Now look at this one.
Sample "O=c1[nH]cc(F)c(=O)[nH]1" — what was its GI50 at 48 h?
10.3
